Listed here are compounds together with their documented composite z-score.
system: Neuregulin-1 EGF-like domain; assay: binders of neuregulin-1 EGF-like domain, primary screen, biochemical, small-molecule microarray, 635 nm fluorescence (AID 1081); conditions: small-molecule microarray binding, higher = more signal;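 also: binding of the protein to compounds printed on small-molecule microarray slides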
Please state the value as a number alone, without comment.

Previously resolved entries follow.
1. Cc1ccc(S[C@]2(C(=O)NCC(F)(F)F)CC(=O)N(C3CCCCC3)[C@@H]2c2ccc(CO)cc2I)cc1 :: 1.18
2. COCCOC(=O)N1C(=O)[C@@]2(c3cc(C#CC4=CCCCC4)ccc31)[C@H](C(N)=O)[C@H]1C(=O)O[C@H](c3ccccc3)[C@H](c3ccccc3)N1[C@@H]2c1ccccc1OCCO :: 1.34
3. COC(=O)c1cn(C[C@@H](Cc2ccccc2)NC(=O)N[C@H](CO)CCc2oc(C(C)=O)c(C(=O)OC)c2C(=O)OC)nn1 :: 1.21
4. COC1OC[C@]2(C)[C@H]3C4=C(CN2C(=O)OC(C)(C)C)[C@H](C)C(CO)C(CO)C4CC[C@@H]13 (some centres not stated) :: 1.25
5. O=c1n(-c2ccccc2)c(=O)n2n1CC(COc1ccccc1)=C([C@H](O)CCc1ccccc1)[C@@H]2CO :: 0.0463
6. [N-]=[N+]=NCc1ccccc1[C@H]1OC(c2ccc(OCCCO)cc2)=N[C@@]1(CCS(=O)(=O)c1ccccc1)C(=O)N1CCCCC1 :: 1.33

--- query ---
Prompt line: GET /values?readout=composite z-score&item= CN(C)CCCNC(=O)[C@@]1(c2ccc([N+](=O)[O-])cc2)CC(=O)N(CC23CC4CC(CC(C4)C2)C3)[C@@H]1c1ccc(CO)cc1I
Response line: 1.36

---

assay: inhibitors of hydroxyurea-induced Chk1 phosphorylation, primary screen, imaging, HeLa, phospho-Chk1 antibody, percent positive cells (AID 1186); settings: hydroxyurea-induced phospho-Chk1 immunofluorescence imaging, higher = more signal
Classify as follows. Reported z-score greater than or equal to -0.03: met. Reported z-score below: not met.

These recorded examples may help you get a feel for the data.
1) C=C(COC)C(=O)CC[C@@H](OC(=O)c1cccnc1)c1ccc(OCCO)cc1 :: not met
2) O=C1O[C@@H](c2ccccc2)[C@@H](c2ccccc2)N2[C@@H](c3ccc(O)cc3)[C@]3(C(=O)Nc4ccc(C#CC5(O)CCCCCC5)cc43)[C@@H](C(=O)NC[C@H](O)c3ccccc3)[C@H]12 :: met
3) COc1ccc(-c2nc(-c3ccccc3)c3c(c2C)CO[Si]3(C(C)C)C(C)C)cn1 :: met
4) COc1ccc(NC(=O)O[C@H]2[C@H](OC(=O)Nc3ccccc3)[C@H](OC(=O)Nc3ccccc3)[C@@H](OC)O[C@@H]2CO)cc1 :: met
5) CCCC[C@@H]1C[C@H]1[C@@H](NC(=O)Cc1ccccc1)c1ccc(-c2ccccc2)cc1 :: not met

Let's switch to this compound now.
Prompt line: Is z-score for OCC1CC(c2ccccc2)=NO1 (stereo not given) at or above -0.03?
Response line: not met

---

test: modulators of S6 phosphorylation in cells, primary screen, cell-based, A549, cytoblot, luminescence, serum-stimulated (AID 1158); conditions: A549 phospho-S6 cytoblot, 5 h, higher = more signal;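 also: serum-stimulated A549 lung adenocarcinoma cells; signal is phosphorylated S6 detected by cytoblot immunostaining with HRP secondary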
Listed here are molecules together with their documented z-score.
Please state the value as a number alone, without comment.

1) C=CCOC(=O)[C@H]1[C@@H]2C(=O)O[C@@H](c3ccccc3)[C@@H](c3ccccc3)N2[C@@H](c2ccc(OCCOC(=O)[C@@H]3C[C@@H]4C(=O)N[C@@H](CCCCNC(C)=O)C(=O)N4[C@@H]3c3ccc(O)cc3)cc2)[C@]12C(=O)Nc1ccc(I)cc12 :: -0.621
2) C=CCOC(=O)[C@H]1[C@@H]2C(=O)O[C@@H](c3ccccc3)[C@@H](c3ccccc3)N2[C@@H](c2ccc(OCCOC(=O)[C@@H]3C[C@@H]4C(=O)N[C@@H](CCCCN(C)C)C(=O)N4[C@@H]3c3ccc(O)cc3)cc2)[C@]12C(=O)Nc1ccccc12 :: -0.444

Prompt line: GET /values?readout=z-score&item= CCCCCCCCCCC(O)C1C=CC2C(=O)N(C)C(=O)C2N1Nc1ccc([N+](=O)[O-])cc1[N+](=O)[O-] (stereo not drawn)
Response line: -0.506

Prompt line: GET /values?readout=z-score&item= CCOC(=O)C[C@H]1[C@H](OC(=O)Cc2ccc3c(c2)OCO3)[C@@H](NC(=O)CC(C)C)c2cc(OCCCO)ccc2N1C(=O)Cc1ccc(OC)cc1
Response line: 1.72

Prompt line: GET /values?readout=z-score&item= Cc1cc(C)c(C(O)C2C=CC3C(=O)N(c4ccccc4)C(=O)C3N2Nc2ccc(C(C)C)cc2)c(C)c1 (stereo not drawn)
Response line: -0.484
